Could you please report measured heart rate at 72 hpf for the items listed next?
Tested on: Danio rerio embryo (fli1:egfp)
Experiment: heart rate at 72 hpf (beats per minute); higher = faster heart rate
Conditions: 1.56 µM; exposure: 5-72 hpf
Answers are plain numbers.

Worked examples follow.
Molecule | Measured number
CCOC(=O)C(C)OC(=O)c1cc(Oc2ccc(C(F)(F)F)cc2Cl)ccc1[N+](=O)[O-] (stereo not drawn) [Lactofen] | 193
CCCCCOC(=O)COc1cc(N2C(=O)C3=C(CCCC3)C2=O)c(F)cc1Cl [Flumiclorac-pentyl] | 178
CCOC(=O)COc1cc(-c2nn(C)c(OC(F)F)c2Cl)c(F)cc1Cl [Pyraflufen-ethyl] | 169
CCOC(=O)C(Cl)Cc1cc(-n2nc(C)n(C(F)F)c2=O)c(F)cc1Cl (stereo not drawn) [Carfentrazone-ethyl] | 186
C#CCN1C(=O)COc2cc(F)c(N3C(=O)C4=C(CCCC4)C3=O)cc21 [Flumioxazin] | 164
CC(C)Oc1cc(-n2nc(C(C)(C)C)oc2=O)c(Cl)cc1Cl [Oxadiazon] | 183
CC(C)[C@H](C(=O)O[C@H](C#N)c1cccc(Oc2ccccc2)c1)c1ccc(Cl)cc1 [Esfenvalerate] | 194

INPUT: Note heart rate at 72 hpf for the molecule shown: C=CCOC(=O)C(C)(C)OC(=O)c1cc(-n2c(=O)cc(C(F)(F)F)n(C)c2=O)ccc1Cl [Butafenacil]
OUTPUT: 168

These measurements were taken from the supplement of paper PMC4121296.
